The reported measurements were obtained from ChEMBL document CHEMBL5154815.

- tgt: Cytochrome P450 2C19 (Homo sapiens, UniProt P33261)
- Sequence (P33261 whole entry): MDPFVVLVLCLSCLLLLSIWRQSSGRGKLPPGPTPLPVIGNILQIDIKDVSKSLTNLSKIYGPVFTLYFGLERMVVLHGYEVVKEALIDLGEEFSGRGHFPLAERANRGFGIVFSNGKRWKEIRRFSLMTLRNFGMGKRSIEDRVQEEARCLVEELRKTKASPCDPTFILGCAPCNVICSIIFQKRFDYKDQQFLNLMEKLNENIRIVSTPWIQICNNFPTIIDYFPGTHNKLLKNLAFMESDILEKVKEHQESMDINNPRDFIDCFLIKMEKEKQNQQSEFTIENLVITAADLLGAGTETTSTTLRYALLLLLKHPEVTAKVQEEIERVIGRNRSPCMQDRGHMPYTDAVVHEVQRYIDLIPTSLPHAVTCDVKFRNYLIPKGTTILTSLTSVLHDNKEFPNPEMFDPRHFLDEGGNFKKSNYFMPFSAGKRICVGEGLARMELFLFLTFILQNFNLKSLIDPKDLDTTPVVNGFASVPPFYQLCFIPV
Each entry below carries its recorded IC50.
metric-name: IC50

>  <substance-smiles>
CC(=O)Nc1ccc(Nc2ncnc(N[C@@H](CC(C)C)C(=O)O)n2)cc1

>  <metric-name>
IC50

>  <recorded-result>
> 50 µM

$$$$
>  <substance-smiles>
CC(=O)Nc1ccc(Nc2ncnc(NCCC(=O)OC(C)(C)C)n2)cc1

>  <metric-name>
IC50

>  <recorded-result>
> 50 µM

$$$$
>  <substance-smiles>
COC(=O)[C@H](CC(C)C)Nc1nc(Cl)nc(N[C@H]2CC[C@H](Nc3nc(Cl)nc(N[C@@H](CC(C)C)C(=O)OC)n3)CC2)n1

>  <metric-name>
IC50

>  <recorded-result>
37.8 µM

$$$$
